src = patent US11407738B2

Would you kindly list IC50 for each of these compounds?
Molecular target: UniProtKB P00746
Sequence (P00746 26-253): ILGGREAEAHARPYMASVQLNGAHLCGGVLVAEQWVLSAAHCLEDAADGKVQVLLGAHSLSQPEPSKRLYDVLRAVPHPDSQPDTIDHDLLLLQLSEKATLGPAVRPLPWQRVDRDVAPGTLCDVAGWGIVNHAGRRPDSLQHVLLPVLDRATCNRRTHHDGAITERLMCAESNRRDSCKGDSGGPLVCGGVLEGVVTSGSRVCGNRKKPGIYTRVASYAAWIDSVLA
Assay: Human Factor D assay
Type: biochemical
Details: Table 4; Factor D inhibition, substrate Z-L-Lys-SBzl

INSERT INTO results (compound, recorded_value) VALUES
  ('CCOP(=O)(OCC)OC[C@@]12C[C@@H]1N(C(=O)Cn1nc(C(C)=O)c3cc(-c4cnc(C)nc4)ccc31)[C@H](C(=O)Nc1cccc(Br)n1)C2 [Compound 628]', '1 to 10 µM'),
  ('CC(=O)c1nn(CC(=O)N2C[C@H](F)C[C@H]2C(=O)Nc2cccc(-c3ccc4scnc4c3)c2F)c2ccc(-c3cnc(C)nc3)cc12', '< 1 µM');

[ask] Which IC50 reading was recorded for the compound Cc1cccc(NC(=O)[C@@H]2CCC(F)CCN2C(=O)Cn2cc(C(N)=O)c3cc(-c4cccc(C#N)c4)ccc32)n1 (stereo partly drawn) ?
[reply] > 10 µM
